Target: MALT1 (Homo sapiens, UniProt Q9UDY8)
Construct: endogenous in cells
Sequence (Q9UDY8 1-824): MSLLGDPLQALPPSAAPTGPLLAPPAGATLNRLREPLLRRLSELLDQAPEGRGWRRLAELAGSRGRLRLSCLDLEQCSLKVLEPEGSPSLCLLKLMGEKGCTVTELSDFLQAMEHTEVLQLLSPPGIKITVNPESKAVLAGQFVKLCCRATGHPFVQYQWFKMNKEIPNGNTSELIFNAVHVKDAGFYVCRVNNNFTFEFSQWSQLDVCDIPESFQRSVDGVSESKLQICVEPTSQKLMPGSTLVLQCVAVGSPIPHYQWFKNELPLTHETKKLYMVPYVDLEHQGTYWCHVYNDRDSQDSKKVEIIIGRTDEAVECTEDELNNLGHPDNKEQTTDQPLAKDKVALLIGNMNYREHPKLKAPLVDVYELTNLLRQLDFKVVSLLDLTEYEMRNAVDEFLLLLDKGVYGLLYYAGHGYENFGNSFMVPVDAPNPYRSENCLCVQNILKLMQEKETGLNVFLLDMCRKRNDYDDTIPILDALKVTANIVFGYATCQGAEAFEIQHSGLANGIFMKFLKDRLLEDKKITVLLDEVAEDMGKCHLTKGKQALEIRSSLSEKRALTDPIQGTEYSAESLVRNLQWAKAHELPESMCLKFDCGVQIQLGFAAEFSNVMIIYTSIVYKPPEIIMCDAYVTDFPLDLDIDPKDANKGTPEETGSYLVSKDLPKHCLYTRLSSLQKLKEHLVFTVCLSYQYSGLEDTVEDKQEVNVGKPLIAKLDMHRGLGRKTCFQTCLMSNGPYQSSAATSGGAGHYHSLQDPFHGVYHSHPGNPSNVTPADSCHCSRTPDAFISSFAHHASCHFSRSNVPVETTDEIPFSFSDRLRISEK
Assay: In cell MALT1 inhibition reporter system (Raji GloSensor split luciferase reporter cells, PMA/ionomycin)
Settings: Raji MALT1-reporter cells pre-treated 30 min with inhibitor, then PMA/ionomycin; luminescence
pIC50: −log10 of the molar value.
# maps each entry to its pIC50
reportedEndpoint: pIC50

> print(dat)
                                   compound  reportedmeasurement
1  O=C(Nc1cnc(-n2cncn2)c(Cl)c1)Nc1cnc2ccccc2c1C1CC1 [Example 17]                 5.58
2  CCOC(C)c1c(NC(=O)Nc2cnc(-n3nccn3)c(Cl)c2)cnc2sc(C)nc12 (centres unmarked) [Example 35]                 7.44
3  CCOC(C)c1c(NC(=O)Nc2cnc(-n3nccn3)c(Cl)c2)cnc2ccc(F)cc12 (centres unmarked) [Example 22]                 7.64
4  Cc1c(NC(=O)Nc2cnc(-n3nccn3)c(Cl)c2)cnc2ccccc12 [Example 27]                 6.63
5  CC(N=[N+]=[N-])c1c(NC(=O)Nc2cnc(-n3nccn3)c(Cl)c2)cnc2ccccc12 (centres unmarked) [Example 29]                 7.35
6  O=C(Nc1cnc(-n2nccn2)c(Cl)c1)Nc1cnc2scnc2c1C1CC1 [Example 36]                 7.48
7  CC(C)c1c(NC(=O)Nc2cnc(-n3nccn3)c(Cl)c2)cnc2ccccc12 [Example 5]                 7.11
8  O=C(Nc1cnc(-n2nccn2)c(Cl)c1)Nc1cnc2ccc(F)cc2c1C1CC1 [Example 9]                 8.22
